System: HT-29
PROTOCOL: NCI tumour cell line growth inhibition, 48 h
Where a name gives a salt, the structure may show the parent alone. Activity calls are given as the source filed them. Cut-off read from the data, not from the text of the source: active = GI50 up to about 1.1 µM and inactive = higher.
Respond only with the outcome that fits, drawn from active, inactive

[[record]]
compound = "O=C1Nc2ccc(Br)cc2/C1=N/c1ccc(Cl)cc1"
tgt = "HT-29"
answer_label = "inactive"


// param item: "C=CC1=C(C)c2cc3[nH]c(c4c5nc(cc6[nH]c(cc1n2)c(C)c6CC)C(C)=C5C(=O)[C@@H]4C(=O)OC)[C@@H](CCC(=O)O)[C@@H]3C" ; yields the recorded call
inactive

And for CN1[C@@H]2CC[C@H]1C[C@@H](OC(c1ccccc1)c1ccccc1)C2 [BENZTROPINE MESYLATE] ?
inactive

----------
Test system: K562
PROTOCOL: NCI tumour cell line growth inhibition, 48 h
Active and inactive are the calls of the source. Cut-off read from the data, not from the text of the source: active = GI50 up to about 1.1 µM and inactive = higher.
ATTRIBUTE MEASURED: GI50

Example results:
[[record]]
compound = "CC(=O)OC1CCC2(C)C(CCC3C4CC=C(C5(C)OCCO5)C4(C)CCC32)C1 (stereo unspecified)"
attribute_measured = "GI50"
measured_value = "25.1 µM (inactive)"

[[record]]
compound = "COC(=O)C(Cc1ccccc1)OC(=O)C(N)CC(=O)O (stereo unspecified)"
attribute_measured = "GI50"
measured_value = "> 100 µM (inactive)"

[[record]]
compound = "O=C1NC(=O)C23C(=O)NC(=O)C12C1C=CC3CC1 (stereo unspecified)"
attribute_measured = "GI50"
measured_value = "> 10 µM (inactive)"


GI50 lookup needed for "CN1CCN(C)C12C=c1ccccc1=CC21CC1" , thanks.
22.8 µM (inactive)

And for "COn1cc(C=O)c2ccccc21" ?
53.5 µM (inactive)

And for CN(Cc1cnc2nc(N)nc(N)c2n1)c1ccc(C(=O)NC(CO)CCCO)cc1 (stereo unspecified) ?
> 100 µM (inactive)

----------
Tested on: MDA-MB-435
PROTOCOL: NCI tumour cell line growth inhibition, 48 h
Structures can show the parent of a compound that is named as a salt. Active and inactive are the calls of the source. Cut-off read from the data, not from the text of the source: active = GI50 up to about 1.1 µM and inactive = higher.
Listing of recorded GI50 by entry.

Example results:
[[record]]
molecule = "COC(=O)c1c([N+](=O)[O-])ncn1[C@H]1OC[C@@H](OC(C)=O)[C@@H](OC(C)=O)[C@@H]1OC(C)=O"
tgt = "MDA-MB-435"
attribute_measured = "GI50"
measured_value = "> 100 µM (inactive)"

[[record]]
molecule = "Cn1c(=O)c2c(nc3n(CC(O)CCl)c(=O)ccn23)n(C)c1=O (stereo not drawn)"
tgt = "MDA-MB-435"
attribute_measured = "GI50"
measured_value = "47.8 µM (inactive)"


GI50 lookup needed for "COC(C[C@H]1CCCC[C@]1(O)/C(=C\CO[Si](C(C)C)(C(C)C)C(C)C)Sc1ccccc1)OC" , thanks.
33 µM (inactive)

And for O=C(OCCN1CCCCCC1)C(c1ccsc1)C1CCCCC1 (stereo not drawn) [CETIEDIL CITRATE] ?
16.9 µM (inactive)

And for Cn1/c(=N\N=C(\CNCCO)[C@@H](O)[C@@H]2OC(c3ccccc3)OC[C@H]2O)sc2ccccc21 (stereo partly drawn) ?
17.9 µM (inactive)

And for "CC(C)OC(=O)NCCn1cc(-c2ccccc2)nn1" ?
> 100 µM (inactive)

And for "CC(=O)O[C@H]1CC(C)(C)C(=C=C/C(C)=C/C=C/C=C/C=C(C)/C=C2C=C(/C=C/[C@@]34O[C@]3(C)C[C@@H](O)CC4(C)C)C(=O)O/2)[C@](C)(O)C1" ?
14.8 µM (inactive)

And for "O=C1/C(=C/c2cccc([N+](=O)[O-])c2)N=C(c2ccccc2)N1c1ccc2c(c1)Sc1cc(N3C(=O)/C(=C/c4cccc([N+](=O)[O-])c4)N=C3c3ccccc3)ccc1N2" ?
18.7 µM (inactive)

----------
System: HOP-92
PROTOCOL: NCI tumour cell line growth inhibition, 48 h
Activity calls are given as the source filed them. Rule as the data show it: active = GI50 up to about 1.1 µM and inactive = higher.
Listing of recorded GI50 by entry.

GI50 lookup needed for "COn1cc(C=O)c2ccccc21" , thanks.
> 68.9 µM (inactive)

----------
System: IGROV-1
PROTOCOL: NCI tumour cell line growth inhibition, 48 h
Active and inactive are the calls of the source. Cut-off read from the data, not from the text of the source: active = GI50 up to about 1.1 µM and inactive = higher.
Respond only with the outcome that fits, drawn from Yes for active, No for inactive

[[record]]
compound = "Cc1c(Br)c(Br)c(C)[s+]1[O-]"
answer_label = "No"

[[record]]
compound = "Nc1nc(SCCc2ccccc2)nc2nc3c(c(-c4ccccc4)c12)CCCC3"
answer_label = "No"

[[record]]
compound = "C/C(=C\\c1ccccc1)n1c(=O)cc(C)n1C"
answer_label = "No"

[[record]]
compound = "O=C(c1ccccc1)N1C2CCC1C(C(F)(F)F)=C2C(F)(F)F"
answer_label = "No"

[[record]]
compound = "CC#CC#C/C=C1/C=CC2(CCCCO2)O1 (configuration not stated)"
answer_label = "No"


// param item: "NN=C(CC(O)(C(F)(F)Cl)C(F)(F)Cl)CC(O)(C(F)(F)Cl)C(F)(F)Cl" ; yields the recorded call
No

And for NC1CC(n2ccc(=O)[nH]c2=O)OC1C(O)CO (configuration not stated) ?
No

And for "C[C@H]1[C@H](C)CC[C@]2(C)CC[C@]3(C)C(=C[C@@H](O)[C@@H]4[C@@]5(C)[C@H](O)[C@@H](O)[C@H](O)C(C)(C)[C@@H]5CC[C@]43C)[C@H]12" ?
No

And for COc1ccc2c(c1)CC[C@@H]1C2CC[C@]2(C)C(=O)N(C)C(=O)CC12 (some centres not stated) ?
No

And for "O=C1c2ccccc2-c2c1c1ccccc1c(=O)n2Cc1ccccc1" ?
No

And for "Cc1cc2c(cc1CO)N1Cc3cc(C)c(CO)cc3N(C2)C1" ?
No

And for "COc1cccc(/N=C/c2cc(OC)c(OC)c(OC)c2)c1" ?
No

And for COC(=O)C(=O)C1CCCCC(C2=NC3NN=C(N)N3C2=O)C1=O (configuration not stated) ?
No

And for "CCc1nnc(S)n1/N=C\c1ccc(-c2ccccc2[N+](=O)[O-])o1" ?
No

And for "CC(C)(CCc1nc2ccccc2[nH]1)C(=O)O" ?
No

And for COc1c2c(cc3nc4ccccc4nc13)CCC(C(C)(C)O)C2 (configuration not stated) ?
No

And for C=C1C2CC3CCC2C(OC(=O)c2ccccc2C(=O)O)C13 (configuration not stated) ?
No

----------
Tested on: TK-10
PROTOCOL: NCI tumour cell line growth inhibition, 48 h
Calls of active or inactive are those of the source. Rule as the data show it: active = GI50 up to about 1.1 µM and inactive = higher.
ATTRIBUTE MEASURED: GI50

[[record]]
compound = "Cc1cccc2c1c(=O)c1c(O)cc(O)cc1n2C"
attribute_measured = "GI50"
measured_value = "> 100 µM (inactive)"

[[record]]
compound = "CCOC(=O)C1CCCCc2sc(N)c(C#N)c21 (centres undefined)"
attribute_measured = "GI50"
measured_value = "> 100 µM (inactive)"

[[record]]
compound = "COc1cc(C)c(C)c(OC(=O)c2c(C)c(C)c(OC)c(C)c2OC)c1C"
attribute_measured = "GI50"
measured_value = "25.6 µM (inactive)"

[[record]]
compound = "COc1ccc(NC(=O)CC(=O)NN2C(=O)/C(=C/c3ccc(N(CCC#N)CCC#N)cc3C)N=C2/C=C\\c2ccccc2)cc1"
attribute_measured = "GI50"
measured_value = "> 100 µM (inactive)"

[[record]]
compound = "COC(=O)C1=C(c2ccc3c(c2)OCO3)OC(c2ccc3c(c2)OCO3)C1 (centres undefined)"
attribute_measured = "GI50"
measured_value = "> 100 µM (inactive)"

[[record]]
compound = "NCCNCc1c2ccccc2c(CNCCN)c2ccccc12"
attribute_measured = "GI50"
measured_value = "69 µM (inactive)"

[[record]]
compound = "CS(=O)(=O)OCCn1cnc2nc(NC(=O)c3ccccc3)[nH]c(=O)c21"
attribute_measured = "GI50"
measured_value = "> 100 µM (inactive)"

[[record]]
compound = "O=c1c2ccccc2sc2cccc(NCCCN3CCN(CCCNc4cccc5sc6ccccc6c(=O)c45)CC3)c12"
attribute_measured = "GI50"
measured_value = "> 100 µM (inactive)"


// below: GI50 requested for another compound
Form field: GI50 recorded for "O=C1/C(=C/c2cccc([N+](=O)[O-])c2)N=C(c2ccccc2)N1c1ccc2c(c1)Sc1cc(N3C(=O)/C(=C/c4cccc([N+](=O)[O-])c4)N=C3c3ccccc3)ccc1N2" with TK-10 (enter value)
19.6 µM (inactive)

----------
Test system: HOP-92
PROTOCOL: NCI tumour cell line growth inhibition, 48 h
Calls of active or inactive are those of the source. Rule as the data show it: active = GI50 up to about 1.1 µM and inactive = higher.
Respond only with the outcome that fits, drawn from True (active), False (inactive)

[[record]]
molecule = "CC(C)C1=Cc2ccc3c(c2C(=O)C1=O)CCCC3"
answer_label = "True"


// param item: "CCOC(=O)C(=O)Nc1cc(Cl)c(Cl)cc1Cl" ; yields the recorded call
False

And for "CC(=O)O[C@H]1CC(C)(C)C(=C=C/C(C)=C/C=C/C=C/C=C(C)/C=C2C=C(/C=C/[C@@]34O[C@]3(C)C[C@@H](O)CC4(C)C)C(=O)O/2)[C@](C)(O)C1" ?
False

And for Cc1cn(CCCCOC(=O)NC(CCCNC(=N)N)C(=O)O)c(=O)[nH]c1=O (stereo not given) ?
False

And for O=C1C2C3C=CC(C2C(=O)N1CN1CCOCC1)C1C2C(=O)N(CN4CCOCC4)C(=O)C2C31 (stereo not given) ?
False

And for "CC(=O)/C=c1\[nH]/c(=C\C=C\c2ccccc2)c(=O)n1/C=C1\C(=O)Oc2ccccc2C1=O" ?
False

And for CCOC(=O)C1CCCCc2sc(N)c(C#N)c21 (stereo not given) ?
False

And for "O=[N+]([O-])/C(C(Cl)=C(Cl)Cl)=C1\Nc2ccccc2O1" ?
False

And for CC(C)c1ccc(/C=C2\CSCC3=C2N=C(S)NC3c2ccc(C(C)C)cc2)cc1 (stereo not given) ?
False

And for CCCCCCCCCCCCCC(=O)OC1CC(=O)OC1CO (stereo not given) ?
False

And for "O=C(Nc1ccccc1-c1nn(CO)c(=S)n(CO)c1=O)C(F)(F)F" ?
False

And for COc1cc(C2c3cc4c(cc3[C@@H](OCCN(C)C)C3COC(=O)[C@H]23)OCO4)cc(OC)c1O (stereo not given in full) ?
True

And for Cc1ccc(NC(=O)CC(=O)N2N=C(N(CCC#N)c3cccc(C)c3)CC2c2ccccc2)cc1 (stereo not given) ?
False

And for "Cc1ccc(O)c(-c2cc(-c3ccccc3)nc(/N=C\c3ccccc3)n2)c1" ?
False

And for "COc1ccc(OC)c(NC(=O)CCC/C(CC(=O)c2ccc(O)c(OC)c2)=N\Nc2nnc(C)n2N)c1" ?
False

And for CCOC(=O)C1(Br)C(c2ccccc2)NC(=O)N(C2OC(COC(=O)c3ccccc3)C(OC(=O)c3ccccc3)C2OC(=O)c2ccccc2)C1(C)Br (stereo not given) ?
False
